# System Under Test: F508delCFTR (Homo sapiens, UniProt P13569, DEL508-508)
# Construct: expressed in transfected cells; host or cells: CFBE41o- human lung-derived epithelial cells (CFBE4lo-F508delCFTR-HRP), doxycycline-inducible
# Sequence (P13569 with tags, fused parts or gaps DEL508-508): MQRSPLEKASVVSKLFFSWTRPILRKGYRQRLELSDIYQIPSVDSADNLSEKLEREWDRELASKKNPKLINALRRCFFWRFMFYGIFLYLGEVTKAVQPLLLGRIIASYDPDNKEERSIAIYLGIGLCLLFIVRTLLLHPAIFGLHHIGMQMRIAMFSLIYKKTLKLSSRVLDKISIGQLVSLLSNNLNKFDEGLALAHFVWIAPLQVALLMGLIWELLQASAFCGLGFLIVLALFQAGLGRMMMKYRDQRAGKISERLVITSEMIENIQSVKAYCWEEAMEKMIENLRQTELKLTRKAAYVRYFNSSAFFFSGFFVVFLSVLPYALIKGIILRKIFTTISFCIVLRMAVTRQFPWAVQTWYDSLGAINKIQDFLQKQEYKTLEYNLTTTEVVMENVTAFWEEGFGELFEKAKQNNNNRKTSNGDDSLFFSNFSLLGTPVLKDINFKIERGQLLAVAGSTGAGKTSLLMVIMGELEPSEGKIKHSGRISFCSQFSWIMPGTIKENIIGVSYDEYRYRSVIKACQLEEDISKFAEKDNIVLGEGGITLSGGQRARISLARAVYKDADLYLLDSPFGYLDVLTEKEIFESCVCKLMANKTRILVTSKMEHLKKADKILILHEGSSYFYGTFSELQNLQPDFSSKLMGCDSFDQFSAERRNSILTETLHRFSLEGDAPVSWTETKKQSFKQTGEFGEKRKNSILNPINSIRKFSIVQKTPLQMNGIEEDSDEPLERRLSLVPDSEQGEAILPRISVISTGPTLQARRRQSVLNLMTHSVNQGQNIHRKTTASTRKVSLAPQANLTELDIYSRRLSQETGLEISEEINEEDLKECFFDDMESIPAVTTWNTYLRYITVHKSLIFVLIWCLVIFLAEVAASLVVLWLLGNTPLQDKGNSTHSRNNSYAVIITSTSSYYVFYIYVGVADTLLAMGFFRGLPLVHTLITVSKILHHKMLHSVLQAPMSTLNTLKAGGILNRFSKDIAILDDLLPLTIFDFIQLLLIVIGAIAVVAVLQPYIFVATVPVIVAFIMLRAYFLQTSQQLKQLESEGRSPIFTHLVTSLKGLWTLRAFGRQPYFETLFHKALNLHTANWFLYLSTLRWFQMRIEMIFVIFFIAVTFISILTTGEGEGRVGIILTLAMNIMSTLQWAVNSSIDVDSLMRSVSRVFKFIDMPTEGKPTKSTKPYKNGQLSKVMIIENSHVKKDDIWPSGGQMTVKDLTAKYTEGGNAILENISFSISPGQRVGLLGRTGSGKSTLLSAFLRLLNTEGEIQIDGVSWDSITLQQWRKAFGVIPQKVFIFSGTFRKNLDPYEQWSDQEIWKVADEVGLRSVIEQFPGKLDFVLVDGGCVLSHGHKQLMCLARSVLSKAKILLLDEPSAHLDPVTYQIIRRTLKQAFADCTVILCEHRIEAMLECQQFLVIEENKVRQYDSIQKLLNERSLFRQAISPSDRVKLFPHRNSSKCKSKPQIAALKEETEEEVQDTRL
# Test Description: Cell Surface Expression-Horse Radish Peroxidase (CSE-HRP) Assay;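 on Maximum % activity (without co-corrector): percent of the 2 µM on-plate positive control corrector response above DMSO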
# Type: cell-based
# Measurement Conditions: test compound without co-corrector; maximum at any tested concentration, normalized to on-plate positive control; read-out: Maximum % activity (without co-corrector)
# Procedure: Cell Surface Expression-Horse Radish Peroxidase (CSE-HRP) Assay The development was achieved by expressing the F508delCFTR mutation along with a horseradish peroxidase (HRP) in the fourth exofacial loop, and then measuring the HRP activity using luminescence readout from these cells, CFBE4lo-F508delCFTR-HRP, that were incubated overnight with the test corrector compounds, either without or with the co-corrector. […] The raw counts from the experiment were analyzed using Accelrys® Assay Explorer v3.3. […]
Readout Type: Emax

Known Emax results, listed for orientation:
COc1cc(Cl)ccc1CN[C@H]1[C@H](C(C)(C)C)[C@@H](C(=O)O)N(C(=O)C2CCCCC2)[C@H]1c1ncccc1OC (racemic) = < 100%
COc1ccc(C(F)(F)F)cc1CN[C@@H]1[C@@H](C(C)(C)C)[C@H](C(=O)O)N(C(=O)[C@H](OC)c2ccccc2)[C@@H]1c1ccccc1 = < 100%
CC(C)(C)[C@H]1[C@H](NCc2ccc3c(c2)OC(F)(F)O3)[C@H](c2ccccc2)N(C(=O)C2CCCCC2)[C@@H]1C(=O)O = < 100%
COc1cc(C(F)(F)F)ccc1CN[C@H]1[C@H](C(C)(C)C)[C@@H](C(=O)O)N(C(=O)[C@@H]2CCCO2)[C@H]1c1cccnc1C1CC1 = 100 to 200%
COc1ccc(C(C)(C)C)cc1CN[C@H]1[C@H](C(C)(C)C)[C@@H](C(=O)O)N(C(=O)C2CCC(F)(F)C2)[C@H]1c1ccccc1 (stereo partly shown) = > 200%

Please look at the following compound next.
Value of measured Emax for the entry COc1cc(C(F)(F)F)ccc1CN[C@H]1[C@H](C(C)(C)C)[C@@H](C(=O)O)N(C(=O)c2cccnc2)[C@H]1c1ccccc1 : < 100%

---

Below, each entry is listed alongside its reported EC50.
# System Under Test: F508delCFTR (Homo sapiens, UniProt P13569, DEL508-508)
# Construct: expressed in transfected cells; host or cells: CFBE41o- human lung-derived epithelial cells (CFBE4lo-F508delCFTR-HRP), doxycycline-inducible
# Test Description: Cell Surface Expression-Horse Radish Peroxidase (CSE-HRP) Assay
# Type: cell-based
# Measurement Conditions: test compound without co-corrector; read-out: EC50 (without co-corrector)

Value of measured EC50 for the entry Cc1cc(C(F)(F)F)cc(N[C@@H]2[C@@H](C(C)(C)C)[C@H](C(=O)O)N(C(=O)C3CCC4(CC3)CC4)[C@@H]2c2ccccc2)n1 (racemic) : > 10 µM

Value of measured EC50 for the entry COc1ccc(C(C)(C)C)cc1CN[C@H]1[C@H](C(C)(C)C)[C@@H](C(=O)O)N(C(=O)c2cnn(-c3ccccc3)c2C)[C@H]1c1ccccc1 : 1 to 10 µM

Value of measured EC50 for the entry COc1ccc(C(F)(F)F)cc1CN[C@H]1[C@H](C(C)(C)C)[C@@H](C(=O)O)N(C(=O)[C@H](OC)c2ccccc2)[C@H]1c1ccccc1 : 1 to 10 µM

Value of measured EC50 for the entry CC(C)(O)c1cc(Cl)nc(N[C@H]2[C@H](C(C)(C)C)[C@@H](C(=O)O)N(C(=O)C3CCCCC3)[C@H]2c2ccccc2)c1 : > 10 µM

Value of measured EC50 for the entry COc1ccc(C(C)(C)C)cc1CN[C@H]1[C@H](C(C)(C)C)[C@@H](C(=O)O)N(C(=O)c2cc(F)cc3c2OCOC3)[C@H]1c1ccccc1 : 1 to 10 µM

Value of measured EC50 for the entry COc1ccc(C(F)(F)F)cc1CN[C@@H]1[C@@H](C(C)(C)C)[C@H](C(=O)O)N(C(=O)C(OC)c2ccccc2)[C@@H]1c1cccnc1N(C)C (relative stereo) : > 10 µM
